Test system: RAW-Dual (murine macrophage reporter line)
Experiment: IRF reporter (Lucia luciferase) activity fold change vs agonist alone; higher = enhanced IRF activity
Conditions: modulator concentration 10 µM; agonist: 3'3'-cGAMP 10 ug/mL
propertyLabel: IRF reporter

[
  {
    "compound": "CCCN(CCC)CCc1cccc2c1CC(=O)N2.Cl",
    "resultNumber": 0.926
  },
  {
    "compound": "Cc1cn(C2C=CC(CO)O2)c(=O)[nH]c1=O (stereo unspecified)",
    "resultNumber": 0.886
  },
  {
    "compound": "COc1cc(C(=O)NCCCCc2ccccc2)cc(OC)c1OC",
    "resultNumber": 0.906
  },
  {
    "compound": "CCSc1nnc(NC(=O)Cc2ccc([N+](=O)[O-])cc2)s1",
    "resultNumber": 0.926
  },
  {
    "compound": "CC#CCn1c(N2CCCC(N)C2)nc2c1c(=O)n(Cc1nc(C)c3ccccc3n1)c(=O)n2C (stereo unspecified)",
    "resultNumber": 0.925
  },
  {
    "compound": "O=C(NCCOc1cccc2ccccc12)Nc1cc(F)c(F)cc1Cl",
    "resultNumber": 0.886
  },
  {
    "compound": "Fc1ccc(Nc2nc(NN=Cc3c[nH]nc3-c3ccccc3)nc(N3CCOCC3)n2)cc1",
    "resultNumber": 1
  },
  {
    "compound": "Cc1cc2nc(SCc3cc4c(cc3Cl)OCO4)[nH]c2cc1C",
    "resultNumber": 0.636
  },
  {
    "compound": "NC(=O)CC[C@H](N)C(=O)O",
    "resultNumber": 0.949
  },
  {
    "compound": "CCOc1ccc(N=Cc2c(Nc3ccc(OCC)cc3)nc3ccccn3c2=O)cc1",
    "resultNumber": 0.855
  },
  {
    "compound": "N#Cc1c(N=Cc2ccc(Br)cc2)sc2c1CCCC2",
    "resultNumber": 0.896
  }
]

====

System: RAW-Dual (murine macrophage reporter line)
Assay: IRF reporter (Lucia luciferase) activity fold change vs agonist alone; higher = enhanced IRF activity
Conditions: modulator concentration 10 µM; agonist: MPLA […]
Listing of recorded IRF reporter by entry.

[
  {
    "compound": "COc1cc(O)c2c(=O)cc(-c3ccc(O)cc3)oc2c1",
    "IRF reporter": 0.798
  },
  {
    "compound": "O=C1SC(=Cc2ccc([N+](=O)[O-])cc2)C(=O)N1Cc1ccccc1",
    "IRF reporter": 1.23
  },
  {
    "compound": "CC(=O)n1cc(C=C(C)[N+](=O)[O-])c2ccccc21",
    "IRF reporter": 0.183
  },
  {
    "compound": "Cc1ccc(C=Nc2ccc(-c3ccc(N=Cc4ccc(C)o4)c(C)c3)cc2C)o1",
    "IRF reporter": 0.894
  },
  {
    "compound": "CCC(=O)Nc1ccc(NC(=O)c2ccco2)c(OC)c1",
    "IRF reporter": 1.42
  },
  {
    "compound": "O=C(CSc1ncnc2c(-c3ccccc3)c[nH]c12)NCc1ccc(Cl)cc1",
    "IRF reporter": 1.24
  },
  {
    "compound": "O=C(NC1CC(=O)N(c2ccc(F)cc2)C1)c1ccc(Cl)cc1 (stereo not given)",
    "IRF reporter": 1.2
  },
  {
    "compound": "C1=C(c2ccccc2)Nc2nnnn2C1c1ccccc1 (stereo not given)",
    "IRF reporter": 1.46
  },
  {
    "compound": "COc1ccc(-c2oc3ccc(OC)cc3c2C(=O)Nc2ccccc2C)cc1",
    "IRF reporter": 1.12
  },
  {
    "compound": "C[C@@H](O)[C@H]1C(=O)N2C(C(=O)O)=C(SCCNC=N)C[C@H]12",
    "IRF reporter": 0.928
  },
  {
    "compound": "Cc1cc(CCNC(=O)c2nc3ccccc3s2)nn1C",
    "IRF reporter": 0.943
  },
  {
    "compound": "CN(C)CCCN1c2ccccc2CCc2ccccc21.Cl",
    "IRF reporter": 0.824
  },
  {
    "compound": "CNC(=O)c1cccc(-c2noc(C3CN(C(=O)NC4CCCCC4)C3)n2)c1",
    "IRF reporter": 1.17
  },
  {
    "compound": "O=C(CCC(=O)OCC(=O)c1cccs1)Nc1ccc(Oc2ccccc2)cc1",
    "IRF reporter": 1.38
  },
  {
    "compound": "CCOP(C)(=O)C(c1ccccc1)N(C)S(C)(=O)=O (stereo not given)",
    "IRF reporter": 1.22
  }
]

Taken from the supplement of paper PMC10646978.
